biological target: furin, P09958; test: furin cleavage Z-score vs untreated control; higher = more cleavage, active = 3.5 or more, inactive = 1 or less, 8 variable residues between constant flanks; conditions: 30 min;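 note: purified furin at 1:10 enzyme:substrate in 50 mM HEPES pH 7.5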
Sequence (P09958 whole entry): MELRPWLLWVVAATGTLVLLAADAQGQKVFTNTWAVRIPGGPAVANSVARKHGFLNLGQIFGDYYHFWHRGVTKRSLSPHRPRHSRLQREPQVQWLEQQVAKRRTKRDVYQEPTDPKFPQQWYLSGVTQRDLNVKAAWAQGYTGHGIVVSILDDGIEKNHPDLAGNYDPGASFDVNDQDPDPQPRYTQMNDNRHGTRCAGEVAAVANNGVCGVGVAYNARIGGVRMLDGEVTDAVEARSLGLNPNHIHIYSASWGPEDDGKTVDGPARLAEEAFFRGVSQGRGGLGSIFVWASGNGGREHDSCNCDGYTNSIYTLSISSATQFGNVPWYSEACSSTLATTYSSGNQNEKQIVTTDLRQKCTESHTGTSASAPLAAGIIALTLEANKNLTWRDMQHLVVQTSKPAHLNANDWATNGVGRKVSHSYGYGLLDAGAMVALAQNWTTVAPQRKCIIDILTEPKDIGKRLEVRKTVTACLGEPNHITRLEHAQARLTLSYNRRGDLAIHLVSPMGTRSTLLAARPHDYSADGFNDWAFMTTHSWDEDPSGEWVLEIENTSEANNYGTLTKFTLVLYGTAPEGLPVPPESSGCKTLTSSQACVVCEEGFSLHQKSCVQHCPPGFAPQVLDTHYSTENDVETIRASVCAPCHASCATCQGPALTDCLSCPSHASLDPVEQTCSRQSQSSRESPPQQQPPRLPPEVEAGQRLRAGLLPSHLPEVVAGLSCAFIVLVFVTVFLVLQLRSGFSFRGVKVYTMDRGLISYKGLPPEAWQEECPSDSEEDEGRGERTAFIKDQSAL
The other results are listed elsewhere or left out. How many sequences the whole screen found active is unknown.
experimental-endpoint: furin cleavage Z-score

Query: Quick check: furin cleavage Z-score of CARFRRSRRTAGNASASA [FS-2666] ?
Result: 6.66 (active)

Query: Same question, CAVVCCQMSYAGNASASA [HC119] this time
Result: 0.623 (inactive)

Query: Same question, CAEVVTSTWTAGNASASA [HC2258] this time
Result: 0.353 (inactive)

Query: Same question, CARFRRIRGEAGNASASA [FS-2491] this time
Result: -0.341 (inactive)

Query: Same question, CADHWRSRRTAGNASASA [FS-646] this time
Result: 3.67 (active)

Query: Same question, CARPTRPLEVAGNASASA [FS-2747] this time
Result: 0.199 (inactive)

Query: Same question, CAAHDGAGKRAGNASASA [HC1557] this time
Result: 0.362 (inactive)
